Target: Tyrosine-protein kinase ABL2 (Homo sapiens) (UniProt P42684);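 also: values are mean percent inhibition of ARG (ABL2), measured within the GSK PKIS set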
Sequence (P42684 whole entry): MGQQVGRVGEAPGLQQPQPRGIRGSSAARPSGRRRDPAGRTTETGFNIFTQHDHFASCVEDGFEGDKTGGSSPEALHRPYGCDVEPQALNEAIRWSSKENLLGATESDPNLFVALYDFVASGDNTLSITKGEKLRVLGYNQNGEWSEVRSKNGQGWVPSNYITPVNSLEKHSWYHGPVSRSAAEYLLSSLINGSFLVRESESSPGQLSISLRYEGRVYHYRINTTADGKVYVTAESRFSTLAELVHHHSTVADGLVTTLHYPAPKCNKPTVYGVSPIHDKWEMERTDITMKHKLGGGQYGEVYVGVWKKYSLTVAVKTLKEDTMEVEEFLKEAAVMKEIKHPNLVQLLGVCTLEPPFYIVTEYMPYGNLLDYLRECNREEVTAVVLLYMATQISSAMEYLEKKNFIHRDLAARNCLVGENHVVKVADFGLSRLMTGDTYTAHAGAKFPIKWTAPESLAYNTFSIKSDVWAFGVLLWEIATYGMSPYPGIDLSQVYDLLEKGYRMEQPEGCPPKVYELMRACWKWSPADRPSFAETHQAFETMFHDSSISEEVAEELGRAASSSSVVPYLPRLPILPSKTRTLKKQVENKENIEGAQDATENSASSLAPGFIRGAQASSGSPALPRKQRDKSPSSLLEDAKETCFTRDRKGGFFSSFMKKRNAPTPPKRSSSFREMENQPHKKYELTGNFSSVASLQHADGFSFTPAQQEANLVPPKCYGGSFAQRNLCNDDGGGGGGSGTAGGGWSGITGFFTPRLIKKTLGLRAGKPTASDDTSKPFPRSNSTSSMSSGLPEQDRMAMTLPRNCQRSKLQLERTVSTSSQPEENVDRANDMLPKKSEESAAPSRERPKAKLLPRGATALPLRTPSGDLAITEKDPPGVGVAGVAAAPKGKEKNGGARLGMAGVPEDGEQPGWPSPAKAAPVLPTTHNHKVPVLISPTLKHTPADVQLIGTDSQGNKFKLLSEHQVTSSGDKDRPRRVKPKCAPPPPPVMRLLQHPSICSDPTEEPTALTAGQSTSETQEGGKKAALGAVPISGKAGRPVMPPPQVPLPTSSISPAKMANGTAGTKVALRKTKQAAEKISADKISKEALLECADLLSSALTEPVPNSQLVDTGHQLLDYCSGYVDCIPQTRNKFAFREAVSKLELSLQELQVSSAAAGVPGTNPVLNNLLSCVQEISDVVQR
Conditions: at 0.1 µM
Listed compounds paired with reported inhibition
Record the value in %, omitting the unit from your answer.

Here are 6 compounds together with their reported answers.
{"smiles-code": "COc1ccc2cc(-c3c(-c4ccncc4)nc(-c4ccc(S(C)(=O)=O)cc4C)n3C)ccc2c1", "uom": "%", "inhibition": 2.97}
{"smiles-code": "CCC(=O)Nc1ccc(C)c(-c2ccc(C(=O)NCC3CC3)cc2)c1", "uom": "%", "inhibition": 0.38}
{"smiles-code": "NS(=O)(=O)c1ccc(N/N=C2\\C(=O)Nc3ccc(C(=O)NCCCn4ccnc4)cc32)cc1", "uom": "%", "inhibition": 4.28}
{"smiles-code": "COc1cc(Nc2ncc(-c3ccccc3)o2)cc(OC)c1OC", "uom": "%", "inhibition": 9.54}
{"smiles-code": "NC(=O)c1cc(-c2ccc(F)cc2)cc(-c2ccncc2)c1N", "uom": "%", "inhibition": 1.26}
{"smiles-code": "Fc1ccc(-c2nc3n(c2-c2ccncc2)CCS3)cc1", "uom": "%", "inhibition": 0.16}

stdin: Missing value: inhibition, Tyrosine-protein kinase ABL2 (Homo sapiens) (UniProt P42684), entry `O=C(Nc1n[nH]c2cc(-c3ccccc3)ccc12)C1CC1` . Fill in?
stdout: 6.15

stdin: Same question, `CCc1nccc2c1nc(-c1nonc1N)n2CC` this time
stdout: 2.12

stdin: What about this compound? `NCc1ccc(-n2c(-c3nonc3N)nc3cnccc32)cc1`
stdout: 4.87

stdin: Queued: `O=C1NC(=O)C(c2cccc(Cl)c2)=C1Nc1ccc(Cl)c(C(=O)O)c1`
stdout: 3.74

stdin: Follow-up item: `CN(C)CCOc1ccc(-c2cc(-c3ccc4c(c3)CCC4=NO)c(-c3ccncc3)o2)cc1`
stdout: 2.43

stdin: Next compound: `N#Cc1ccc(Oc2nccc(-c3c(-c4ccc(F)cc4)ncn3C3CCNCC3)n2)cc1`
stdout: 1.9

stdin: Next compound: `CCS(=O)(=O)c1ccc(OC)c(Nc2ncc(-c3cccc(-c4ccccc4F)c3)o2)c1`
stdout: 7.9

stdin: Can you handle `NS(=O)(=O)c1ccc(N/N=C2\C(=O)Nc3ccc(-c4cnco4)cc32)cc1` next?
stdout: -0.55

stdin: Further, for `CS(=O)(=O)CCNCc1ccc(-c2ccc3ncnc(Nc4ccc(OCc5ccccc5)c(Br)c4)c3c2)o1` ?
stdout: 0.83

stdin: Try the compound `COc1cc2ncn(-c3cc(OCc4ccccc4C(F)(F)F)c(C(C)=O)s3)c2cc1OC`
stdout: 6.5

stdin: And for `Fc1ccc(-c2ncn(C3CCNCC3)c2-c2ccnc(Oc3ccc(F)c(F)c3)n2)cc1` ?
stdout: -1.34

stdin: Entry `Fc1ccc(-c2c(-c3ccncc3)nc3n2CCS3)cc1` please
stdout: -2.22

stdin: Try the compound `CCc1ccc(Oc2nccc(-c3c(-c4ccc(F)cc4)ncn3C3CCNCC3)n2)cc1`
stdout: 2.69

stdin: Next compound up: `NS(=O)(=O)c1ccc(Nc2cc(-c3ccc(O)c(F)c3)n[nH]2)cc1`
stdout: 0.56

stdin: Now consider `Cc1ccc(C(=O)NC2CCC2)cc1-c1ccc(C(=O)NCC2CC2)cc1` .
stdout: 3.15

---

Biological target: Tyrosine-protein kinase ITK/TSK (Homo sapiens) (UniProt Q08881);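 also: mean percent inhibition of ITK from the GSK PKIS screen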
Sequence (Q08881 whole entry): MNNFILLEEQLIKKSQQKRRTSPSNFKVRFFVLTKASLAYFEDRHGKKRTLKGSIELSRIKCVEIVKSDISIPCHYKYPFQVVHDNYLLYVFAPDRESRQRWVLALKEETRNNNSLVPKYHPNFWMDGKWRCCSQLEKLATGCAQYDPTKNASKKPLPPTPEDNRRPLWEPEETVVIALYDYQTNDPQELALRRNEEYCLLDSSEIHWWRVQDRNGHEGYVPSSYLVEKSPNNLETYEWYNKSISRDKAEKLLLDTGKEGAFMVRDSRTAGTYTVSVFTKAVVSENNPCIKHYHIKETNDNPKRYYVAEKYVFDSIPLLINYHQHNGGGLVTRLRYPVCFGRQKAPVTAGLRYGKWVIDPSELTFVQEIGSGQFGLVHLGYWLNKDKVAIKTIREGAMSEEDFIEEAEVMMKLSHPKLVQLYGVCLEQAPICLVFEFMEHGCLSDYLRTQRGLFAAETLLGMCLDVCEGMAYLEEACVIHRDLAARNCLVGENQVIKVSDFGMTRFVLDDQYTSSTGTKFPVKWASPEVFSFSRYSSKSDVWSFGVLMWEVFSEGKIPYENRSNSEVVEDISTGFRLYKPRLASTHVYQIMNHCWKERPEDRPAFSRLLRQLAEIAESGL
Details: at 0.1 µM
Reported values of inhibition for individual entries
Number only, in %; omit the unit.

stdin: Recall the recorded inhibition for `Cc1ccc(C(=O)NC2CCC2)cc1-c1ccc(C(=O)NCC2CC2)cc1` with Tyrosine-protein kinase ITK/TSK (Homo sapiens) (UniProt Q08881) and state it.
stdout: 2.02

---

Below: a set of entries, each annotated with reported inhibition.
Target: Ephrin type-A receptor 4 (Homo sapiens) (UniProt P54764)
Sequence (P54764 whole entry): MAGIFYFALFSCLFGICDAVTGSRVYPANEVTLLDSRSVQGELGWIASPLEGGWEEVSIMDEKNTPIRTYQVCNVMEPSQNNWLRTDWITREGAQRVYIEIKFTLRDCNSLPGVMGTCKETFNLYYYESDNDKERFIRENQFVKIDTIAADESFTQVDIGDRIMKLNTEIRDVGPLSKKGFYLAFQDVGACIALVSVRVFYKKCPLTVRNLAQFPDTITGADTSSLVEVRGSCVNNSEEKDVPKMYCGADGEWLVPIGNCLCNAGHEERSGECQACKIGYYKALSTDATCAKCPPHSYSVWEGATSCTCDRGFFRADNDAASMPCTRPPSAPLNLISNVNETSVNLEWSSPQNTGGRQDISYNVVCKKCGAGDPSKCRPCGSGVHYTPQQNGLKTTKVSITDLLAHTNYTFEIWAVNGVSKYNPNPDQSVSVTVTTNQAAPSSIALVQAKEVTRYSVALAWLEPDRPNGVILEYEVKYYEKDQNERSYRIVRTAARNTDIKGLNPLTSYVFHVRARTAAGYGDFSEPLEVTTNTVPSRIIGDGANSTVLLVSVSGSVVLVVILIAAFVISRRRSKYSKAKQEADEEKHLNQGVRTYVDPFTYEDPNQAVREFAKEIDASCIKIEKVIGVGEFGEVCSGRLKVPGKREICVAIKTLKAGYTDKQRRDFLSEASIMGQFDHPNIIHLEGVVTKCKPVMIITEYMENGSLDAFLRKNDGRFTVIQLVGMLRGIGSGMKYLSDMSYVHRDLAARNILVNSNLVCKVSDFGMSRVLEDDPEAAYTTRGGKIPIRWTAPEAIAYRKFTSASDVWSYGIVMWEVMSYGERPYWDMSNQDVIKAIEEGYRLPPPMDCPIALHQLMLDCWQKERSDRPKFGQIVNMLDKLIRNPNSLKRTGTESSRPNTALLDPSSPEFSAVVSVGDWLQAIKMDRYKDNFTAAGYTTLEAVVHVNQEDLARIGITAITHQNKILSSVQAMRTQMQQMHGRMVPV
Details: at 1 µM
Description: GSK_PKIS: EPHA4 mean inhibition at 1 uM [Nanosyn]
Give the number; % is assumed, so skip it.

stdin: Endpoint output: inhibition of `Cc1ccc(C(=O)NC2CCC2)cc1-c1ccc(C(=O)NCC2CC2)cc1` . Value?
stdout: 0.68

stdin: Next molecule up: `Fc1ccc(-c2ncn(C3CCNCC3)c2-c2ccnc(Oc3ccc(F)c(F)c3)n2)cc1`
stdout: 9.68

stdin: # repeat for `O=C1Nc2ccc(I)cc2C1=Cc1cc(Br)c(O)c(Br)c1`
stdout: 9.77

stdin: Do the same for `NS(=O)(=O)c1ccc(Nc2cc(-c3ccc(O)c(F)c3)n[nH]2)cc1` please
stdout: -5.56

stdin: # repeat for `O=C(Nc1n[nH]c2cc(-c3ccccc3)ccc12)C1CC1`
stdout: 18.9

stdin: Same question, `O=C1Nc2ccccc2/C1=C/Nc1ccc(-n2cncn2)cc1` this time
stdout: 12.3

stdin: Item: `Fc1ccc(-c2ncn(C3CCNCC3)c2-c2ccnc(Oc3ccc(Oc4ccccc4)cc3)n2)cc1`
stdout: 7.87

stdin: Next record, please: `NS(=O)(=O)c1ccc(N/N=C2\C(=O)Nc3ccc(-c4cnco4)cc32)cc1`
stdout: 10.8

stdin: Now consider `CS(=O)(=O)CCNCc1cc(-c2cc3c(Nc4ccc(OCc5cccc(F)c5)c(Cl)c4)ncnc3s2)cs1` and answer again.
stdout: 10.4

stdin: Let us now turn to `COc1cc(C)c(N(C)C(=O)CN(C)C)cc1Nc1nc(Nc2cccc(F)c2C(N)=O)c2cc[nH]c2n1`
stdout: -1.31

stdin: And what about the molecule `c1ccc(Oc2ccc(Nc3ncc(-c4ccccc4)o3)cc2)cc1` ?
stdout: 4.79

stdin: Subsequent entry: `NC(=O)c1cc(-c2ccncc2)cc(-c2ccccc2)c1N`
stdout: 62.8

stdin: Would you mind doing `O=C(NCC1CC1)c1ccc(-c2cccc(C(=O)NC3CC3)c2)cc1` as well?
stdout: -0.51

stdin: Also, COc1ccc2cc(-c3c(-c4ccncc4)nc(-c4ccc([S+](C)[O-])cc4C)n3C)ccc2c1 (stereo not given) please.
stdout: 18.6

stdin: Continue with `N#Cc1ccc(Oc2nccc(-c3c(-c4ccc(F)cc4)ncn3C3CCNCC3)n2)cc1`
stdout: 9.65

stdin: What do we get for `CN1CCN(CCCNc2nc3ccc(Oc4ccc(NC(=O)Nc5cc(C(F)(F)F)ccc5F)cc4)cc3[nH]2)CC1` ?
stdout: 25.9

---

The compounds listed here are annotated with their inhibition.
Target: Glycogen synthase kinase-3 alpha (Homo sapiens) (UniProt P49840);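 also: each figure is a mean percent inhibition of GSK3A activity, from a screen of the GSK published kinase inhibitor set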
Sequence (P49840 2-483 limits assumed): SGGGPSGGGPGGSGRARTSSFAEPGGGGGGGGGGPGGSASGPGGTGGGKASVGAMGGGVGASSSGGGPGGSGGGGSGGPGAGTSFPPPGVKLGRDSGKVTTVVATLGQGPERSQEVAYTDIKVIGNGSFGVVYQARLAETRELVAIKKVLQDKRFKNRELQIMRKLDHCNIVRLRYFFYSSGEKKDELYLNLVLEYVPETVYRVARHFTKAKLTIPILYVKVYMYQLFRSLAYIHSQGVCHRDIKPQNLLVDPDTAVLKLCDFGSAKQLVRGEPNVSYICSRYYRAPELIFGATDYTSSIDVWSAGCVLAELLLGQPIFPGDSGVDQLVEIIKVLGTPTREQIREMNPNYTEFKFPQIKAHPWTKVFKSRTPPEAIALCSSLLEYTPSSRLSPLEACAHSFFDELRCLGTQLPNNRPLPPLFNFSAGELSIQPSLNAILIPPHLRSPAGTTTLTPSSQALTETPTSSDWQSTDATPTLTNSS
Conditions: at 1 µM
Write the value in % as a bare number.

Example entries begin here.
{"compound": "Clc1ccc(CNc2nccc(-c3cnn4ncccc34)n2)cc1", "test-target": "Glycogen synthase kinase-3 alpha (Homo sapiens) (UniProt P49840)", "inhibition, %": 9.8}
{"compound": "NCc1ccc(-n2c(-c3nonc3N)nc3cnccc32)cc1", "test-target": "Glycogen synthase kinase-3 alpha (Homo sapiens) (UniProt P49840)", "inhibition, %": 67}
{"compound": "COc1cc(Nc2ncc3c(C)nc(-c4cccc(Oc5ccccc5)c4)n3n2)cc(OC)c1OC", "test-target": "Glycogen synthase kinase-3 alpha (Homo sapiens) (UniProt P49840)", "inhibition, %": 0.14}
{"compound": "Fc1ccc(-c2nc3n(c2-c2ccncc2)CCS3)cc1", "test-target": "Glycogen synthase kinase-3 alpha (Homo sapiens) (UniProt P49840)", "inhibition, %": 3.8}
{"compound": "Cc1ccc(C(=O)NC(C)C)cc1-c1ccc(C(=O)NCC2CC2)cc1", "test-target": "Glycogen synthase kinase-3 alpha (Homo sapiens) (UniProt P49840)", "inhibition, %": 3.31}

stdin: For Glycogen synthase kinase-3 alpha (Homo sapiens) (UniProt P49840), provide inhibition of `CN1CCN(CCCNc2nc3ccc(Oc4ccc(NC(=O)Nc5cc(C(F)(F)F)ccc5F)cc4)cc3[nH]2)CC1` please.
stdout: 0.59

stdin: Would you kindly repeat that for `C/C(Nc1ccc(S(N)(=O)=O)cc1)=C1/C(=O)Nc2ccccc21` ?
stdout: 7.04

stdin: Follow-up item: `C[C@@H](Oc1cc(-n2cnc3ccc(OC4CCN(C)CC4)cc32)sc1C(N)=O)c1ccccc1Cl`
stdout: -0.34

---

Molecular target: Cytoplasmic tyrosine-protein kinase BMX (Homo sapiens);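 also: reported value is the mean percent inhibition of BMX, from the GSK PKIS kinase inhibitor screen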
Sequence (whole entry): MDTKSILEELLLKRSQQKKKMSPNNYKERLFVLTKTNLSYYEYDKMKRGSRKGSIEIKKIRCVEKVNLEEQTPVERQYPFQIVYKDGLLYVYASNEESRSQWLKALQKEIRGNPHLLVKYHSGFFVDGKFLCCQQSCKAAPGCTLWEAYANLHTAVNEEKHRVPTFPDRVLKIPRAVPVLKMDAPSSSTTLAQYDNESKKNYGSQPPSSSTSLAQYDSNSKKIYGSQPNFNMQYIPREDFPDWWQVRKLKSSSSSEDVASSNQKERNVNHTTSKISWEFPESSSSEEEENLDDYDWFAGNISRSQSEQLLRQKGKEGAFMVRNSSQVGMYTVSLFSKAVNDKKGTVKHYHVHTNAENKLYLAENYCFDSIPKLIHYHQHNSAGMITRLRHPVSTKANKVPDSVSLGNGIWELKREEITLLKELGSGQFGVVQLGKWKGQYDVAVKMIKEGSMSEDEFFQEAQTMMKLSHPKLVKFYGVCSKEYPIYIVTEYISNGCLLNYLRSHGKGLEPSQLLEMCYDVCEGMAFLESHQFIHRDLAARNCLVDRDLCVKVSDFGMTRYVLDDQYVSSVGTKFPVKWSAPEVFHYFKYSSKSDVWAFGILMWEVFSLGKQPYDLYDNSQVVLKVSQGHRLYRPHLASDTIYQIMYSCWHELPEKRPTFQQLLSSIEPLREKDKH
Details: at 1 µM
measurement-name: inhibition (%)
Use % as the unit, but write only the number.

stdin: # lookup: inhibition of `CCC(=O)Nc1ccc(C)c(-c2ccc(C(=O)NCC3CC3)cc2)c1`
stdout: 3.88

stdin: And `NS(=O)(=O)c1ccc(Nc2cc(-c3ccc(O)c(F)c3)n[nH]2)cc1` ?
stdout: -1.41

stdin: Now consider `c1ccc(-c2n[nH]cc2-c2ccnc(-c3ccc(OCCN4CCOCC4)cc3)c2)nc1` .
stdout: 0.44

stdin: Queued: `CN(C)c1ccc2c(c1)/C(=C/Nc1ccc(S(N)(=O)=O)cc1)C(=O)N2`
stdout: 1.7

stdin: Same question, `COc1cccc(-n2cnc3c(N/N=C/c4ccncc4)ncnc32)c1` this time
stdout: 16.1
